Species on record: Rattus norvegicus
METHOD: Open TG-GATES - Regimen: Daily Repeat
Format: toxicity, organism-based, Sprague-Dawley
Design: regimen Daily Repeat, gender Male, age 6 weeks
MEASUREMENT CONDITIONS: in vivo, po, 0 mg/kg, […], tissue Plasma, route gavage, dose level Control, time 7 day
Collected ALT values appear next to each entry.
Your answer should be a plain number; it is taken to be in IU/L.

Query: Fill in the blank: the reported ALT of CCCc1cc(=O)[nH]c(=S)[nH]1 is ____.
Reply: 34.2

***
Query: Fill in the blank: the reported ALT of COC(=O)C1=C(C)NC(C)=C(C(=O)OC)C1c1ccccc1[N+](=O)[O-] is ____.
Reply: 42.6

Query: Fill in the blank: the reported ALT of CNC(=C[N+](=O)[O-])NCCSCc1ccc(CN(C)C)o1 is ____.
Reply: 31.6

Query: Fill in the blank: the reported ALT of Nc1c2c(nc3ccccc13)CCCC2 is ____.
Reply: 36

Query: Fill in the blank: the reported ALT of Cc1nnc2n1-c1ccc(Cl)cc1C(c1ccccc1Cl)=NC2 is ____.
Reply: 45.4

----------
Organism: Rattus norvegicus
METHOD: Open TG-GATES - Regimen: Single
Format: toxicity, organism-based, Sprague-Dawley
Parameters: regimen Single, gender Male, age 6 weeks
MEASUREMENT CONDITIONS: in vivo, po, 0 mg/kg, 3 h, tissue Plasma, route gavage, dose level Control
Collected Na values appear next to each entry.
Your answer should be a plain number; it is taken to be in meq/L.

Here are 3 molecules together with their reported answers.
Query: Fill in the blank: the reported Na of NC1=NC(=O)C(c2ccccc2)O1 (centres undefined) is ____.
Reply: 139.8

Query: Fill in the blank: the reported Na of CS(=O)(=O)O.Cc1ccc(NC(=O)c2ccc(CN3CCN(C)CC3)cc2)cc1Nc1nccc(-c2cccnc2)n1 [IMATINIB MESYLATE] is ____.
Reply: 143.2

Query: Fill in the blank: the reported Na of Brc1ccccc1 is ____.
Reply: 141.6

***
Query: Fill in the blank: the reported Na of Cc1nnc2n1-c1ccc(Cl)cc1C(c1ccccc1Cl)=NC2 is ____.
Reply: 140.8

Query: Fill in the blank: the reported Na of CN/C(=N/CCSCc1nc[nH]c1C)NC#N is ____.
Reply: 140.8

Query: Fill in the blank: the reported Na of COC(=O)C1=C(C)NC(C)=C(C(=O)OC)C1c1ccccc1[N+](=O)[O-] is ____.
Reply: 142

Query: Fill in the blank: the reported Na of CCOc1ccc(NC(C)=O)cc1 is ____.
Reply: 142.2

----------
Collected Plat values appear next to each entry.
Species on record: Rattus norvegicus
METHOD: Open TG-GATES - Regimen: Single
Type: toxicity, organism-based, Sprague-Dawley
Set-up: regimen Single, gender Male, age 6 weeks
MEASUREMENT CONDITIONS: in vivo, po, 100 mg/kg, 6 h, tissue Blood, route gavage, dose level Low
Your answer should be a plain number; it is taken to be in x10_4/uL.

Here are 4 compounds together with their reported answers.
Query: Fill in the blank: the reported Plat of COC(=O)C1=C(C)NC(C)=C(C(=O)OC)C1c1ccccc1[N+](=O)[O-] is ____.
Reply: 124

Query: Fill in the blank: the reported Plat of CN/C(=N/CCSCc1nc[nH]c1C)NC#N is ____.
Reply: 135.7

Query: Fill in the blank: the reported Plat of O=C(OC[C@H]1O[C@@H](OC(=O)c2cc(O)c(O)c(OC(=O)c3cc(O)c(O)c(O)c3)c2)[C@H](OC(=O)c2cc(O)c(O)c(OC(=O)c3cc(O)c(O)c(O)c3)c2)[C@@H](OC(=O)c2cc(O)c(O)c(OC(=O)c3cc(O)c(O)c(O)c3)c2)[C@@H]1OC(=O)c1cc(O)c(O)c(OC(=O)c2cc(O)c(O)c(O)c2)c1)c1cc(O)c(O)c(OC(=O)c2cc(O)c(O)c(O)c2)c1 is ____.
Reply: 109.6

Query: Fill in the blank: the reported Plat of CNC(=C[N+](=O)[O-])NCCSCc1ccc(CN(C)C)o1 is ____.
Reply: 118.8

In the following, a different compound is considered.
Query: Fill in the blank: the reported Plat of Cc1nnc2n1-c1ccc(Cl)cc1C(c1ccccc1Cl)=NC2 is ____.
Reply: 121.9

----------
Collected Na values appear next to each entry.
Organism: Rattus norvegicus
METHOD: Open TG-GATES - Regimen: Daily Repeat
Format: toxicity, organism-based, Sprague-Dawley
Parameters: regimen Daily Repeat, gender Male, age 6 weeks
MEASUREMENT CONDITIONS: in vivo, po, 0 mg/kg, […], tissue Plasma, route gavage, dose level Control, time 14 day
Please answer using a numeric value trailed by its unit.

Here are 8 molecules together with their reported answers.
Query: Fill in the blank: the reported Na of CN1C(=O)CCS(=O)(=O)C1c1ccc(Cl)cc1 (stereo not drawn) is ____.
Reply: 143.6 meq/L

Query: Fill in the blank: the reported Na of Brc1ccccc1 is ____.
Reply: 143.2 meq/L

Query: Fill in the blank: the reported Na of CN/C(=N/CCSCc1nc[nH]c1C)NC#N is ____.
Reply: 141.4 meq/L

Query: Fill in the blank: the reported Na of Cc1nnc2n1-c1ccc(Cl)cc1C(c1ccccc1Cl)=NC2 is ____.
Reply: 143 meq/L

Query: Fill in the blank: the reported Na of CNC(=C[N+](=O)[O-])NCCSCc1ccc(CN(C)C)o1 is ____.
Reply: 141.2 meq/L

Query: Fill in the blank: the reported Na of CCOc1ccc(NC(C)=O)cc1 is ____.
Reply: 143.6 meq/L

Query: Fill in the blank: the reported Na of CCCc1cc(=O)[nH]c(=S)[nH]1 is ____.
Reply: 140.8 meq/L

Query: Fill in the blank: the reported Na of CC(C)NNC(=O)c1ccncc1 is ____.
Reply: 141.8 meq/L

***
Query: Fill in the blank: the reported Na of Nc1c2c(nc3ccccc13)CCCC2 is ____.
Reply: 142.2 meq/L

Query: Fill in the blank: the reported Na of COC(=O)C1=C(C)NC(C)=C(C(=O)OC)C1c1ccccc1[N+](=O)[O-] is ____.
Reply: 144.2 meq/L

Query: Fill in the blank: the reported Na of CN(C)CCC(c1ccc(Cl)cc1)c1ccccn1 (stereo not drawn) is ____.
Reply: 143.4 meq/L

Query: Fill in the blank: the reported Na of O=C(OC[C@H]1O[C@@H](OC(=O)c2cc(O)c(O)c(OC(=O)c3cc(O)c(O)c(O)c3)c2)[C@H](OC(=O)c2cc(O)c(O)c(OC(=O)c3cc(O)c(O)c(O)c3)c2)[C@@H](OC(=O)c2cc(O)c(O)c(OC(=O)c3cc(O)c(O)c(O)c3)c2)[C@@H]1OC(=O)c1cc(O)c(O)c(OC(=O)c2cc(O)c(O)c(O)c2)c1)c1cc(O)c(O)c(OC(=O)c2cc(O)c(O)c(O)c2)c1 is ____.
Reply: 139.6 meq/L

Query: Fill in the blank: the reported Na of NC1=NC(=O)C(c2ccccc2)O1 (stereo not drawn) is ____.
Reply: 144.6 meq/L

----------
Species: Rattus norvegicus
METHOD: Open TG-GATES - Regimen: Daily Repeat
Format: toxicity, organism-based, Sprague-Dawley
Set-up: regimen Daily Repeat, gender Male, age 6 weeks
MEASUREMENT CONDITIONS: in vivo, po, 1000 mg/kg, […], tissue Blood, route gavage, dose level High, time 28 day
Tag: class 1 if measured Eos is not below 1%, class 0 if it is.

Query: Could you please find out whether CNC(=C[N+](=O)[O-])NCCSCc1ccc(CN(C)C)o1 has Eos that meets 1% or exceeds it?
Reply: class 1

Query: Could you please find out whether CN/C(=N/CCSCc1nc[nH]c1C)NC#N has Eos that meets 1% or exceeds it?
Reply: class 1

***
Query: Could you please find out whether O=C(OC[C@H]1O[C@@H](OC(=O)c2cc(O)c(O)c(OC(=O)c3cc(O)c(O)c(O)c3)c2)[C@H](OC(=O)c2cc(O)c(O)c(OC(=O)c3cc(O)c(O)c(O)c3)c2)[C@@H](OC(=O)c2cc(O)c(O)c(OC(=O)c3cc(O)c(O)c(O)c3)c2)[C@@H]1OC(=O)c1cc(O)c(O)c(OC(=O)c2cc(O)c(O)c(O)c2)c1)c1cc(O)c(O)c(OC(=O)c2cc(O)c(O)c(O)c2)c1 has Eos that meets 1% or exceeds it?
Reply: class 1

Query: Could you please find out whether COC(=O)C1=C(C)NC(C)=C(C(=O)OC)C1c1ccccc1[N+](=O)[O-] has Eos that meets 1% or exceeds it?
Reply: class 0

Query: Could you please find out whether Cc1nnc2n1-c1ccc(Cl)cc1C(c1ccccc1Cl)=NC2 has Eos that meets 1% or exceeds it?
Reply: class 1
